Recorded values, source patent US20190135908A1.

What koff was measured for each of the following?
# Target Under Test: T1, Rat GDF15 HIS: HIS-tagged rat GDF15 (rat, UniProt Q9Z0J6 189-303, limits assumed)
# T1 construct: also called Rat His-GDF15; not shown: His tag
# T1 sequence (looked up): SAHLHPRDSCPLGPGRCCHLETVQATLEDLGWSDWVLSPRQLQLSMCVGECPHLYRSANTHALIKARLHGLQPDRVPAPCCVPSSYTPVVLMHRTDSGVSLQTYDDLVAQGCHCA
# Experiment Description: Biacore SPR, IgG captured via anti-human Fc, GDF15 in flow
Give bare numbers, in s⁻¹.

Use these answered entries as a reference point.
- ABGDF15-C (antibody, human IgG1, lambda, V domains shown, captured through anti-human Fc in the Biacore assay) VH: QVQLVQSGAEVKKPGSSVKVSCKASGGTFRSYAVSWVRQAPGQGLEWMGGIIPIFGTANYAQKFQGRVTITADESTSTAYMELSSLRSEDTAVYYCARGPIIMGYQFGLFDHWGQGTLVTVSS VL: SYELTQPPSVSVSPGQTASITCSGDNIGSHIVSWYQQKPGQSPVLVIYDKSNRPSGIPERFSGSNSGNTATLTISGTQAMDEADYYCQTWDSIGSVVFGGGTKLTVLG: 0.000483
- ABGDF15-B (antibody, human IgG1, lambda, V domains shown, captured through anti-human Fc in the Biacore assay) VH: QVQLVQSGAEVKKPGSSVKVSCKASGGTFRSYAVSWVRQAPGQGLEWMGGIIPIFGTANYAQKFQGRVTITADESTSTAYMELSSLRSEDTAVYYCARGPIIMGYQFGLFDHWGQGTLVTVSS VL: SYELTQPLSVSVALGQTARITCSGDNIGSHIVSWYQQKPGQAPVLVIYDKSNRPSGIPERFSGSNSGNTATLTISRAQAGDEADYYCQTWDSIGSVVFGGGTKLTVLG: 0.00052
- ABGDF15-F (antibody, human IgG1, lambda, V domains shown, captured through anti-human Fc in the Biacore assay) VH: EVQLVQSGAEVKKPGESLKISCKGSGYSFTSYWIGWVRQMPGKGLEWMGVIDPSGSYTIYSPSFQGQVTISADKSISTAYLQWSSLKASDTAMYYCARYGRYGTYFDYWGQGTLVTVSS VL: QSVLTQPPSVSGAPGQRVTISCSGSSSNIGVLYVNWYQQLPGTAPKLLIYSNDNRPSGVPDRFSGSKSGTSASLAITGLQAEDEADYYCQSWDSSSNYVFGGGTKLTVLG: 0.000538

Please go through the list and note koff for each binder.
1. ABGDF15-A (antibody, human IgG1, kappa, V domains shown, captured through anti-human Fc in the Biacore assay) VH: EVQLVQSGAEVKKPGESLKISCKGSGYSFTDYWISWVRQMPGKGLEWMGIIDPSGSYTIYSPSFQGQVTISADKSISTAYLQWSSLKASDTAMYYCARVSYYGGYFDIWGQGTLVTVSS VL: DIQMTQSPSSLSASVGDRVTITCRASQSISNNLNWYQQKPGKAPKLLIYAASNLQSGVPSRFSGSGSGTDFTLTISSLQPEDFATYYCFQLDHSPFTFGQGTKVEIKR
2. ABGDF15-G (antibody, human IgG1, kappa, V domains shown, captured through anti-human Fc in the Biacore assay) VH: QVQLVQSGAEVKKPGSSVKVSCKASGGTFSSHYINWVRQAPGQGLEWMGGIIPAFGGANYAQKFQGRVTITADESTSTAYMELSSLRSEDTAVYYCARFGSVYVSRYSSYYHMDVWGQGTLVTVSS VL: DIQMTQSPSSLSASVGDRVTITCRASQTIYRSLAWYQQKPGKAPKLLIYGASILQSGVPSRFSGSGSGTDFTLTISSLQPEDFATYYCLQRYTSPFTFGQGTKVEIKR
3. ABGDF15-D (antibody, human IgG1, lambda, V domains shown, captured through anti-human Fc in the Biacore assay) VH: EVQLVQSGAEVKKPGESLKISCKGSGYSFTSYWIGWVRQMPGKGLEWMGVIDPDGSYTIYSPSFQGQVTISADKSISTAYLQWSSLKASDTAMYYCARYGRYGTYFDYWGQGTLVTVSS VL: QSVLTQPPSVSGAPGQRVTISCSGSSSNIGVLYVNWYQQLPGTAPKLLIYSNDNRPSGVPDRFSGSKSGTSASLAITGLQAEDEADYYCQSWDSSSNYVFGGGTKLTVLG
4. ABGDF15-E (antibody, human IgG1, lambda, V domains shown, captured through anti-human Fc in the Biacore assay) VH: EVQLVQSGAEVKKPGESLKISCKGSGYSFTSYWIGWVRQMPGKGLEWMGVIDPGGSYTIYSPSFQGQVTISADKSISTAYLQWSSLKASDTAMYYCARYGRYGTYFDYWGQGTLVTVSS VL: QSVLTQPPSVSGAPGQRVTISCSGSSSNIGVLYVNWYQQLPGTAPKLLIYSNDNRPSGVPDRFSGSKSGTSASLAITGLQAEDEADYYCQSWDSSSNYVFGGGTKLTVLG

Result:
0.000451
0.000365
0.000456
0.000428
